System: E13 (patient-derived glioblastoma stem cells of classical subtype)
PROTOCOL DETAILS: surviving fraction (nuclei count normalised to DMSO); higher = more cells surviving (less toxic)
MEASUREMENT CONDITIONS: 4.1 nM; exposure time: 72 h
Where a name gives a salt, the structure may show the parent alone.
MEASURED PARAMETER: surviving fraction

compound="CN(C)C(=O)Oc1ccc[n+](C)c1 [Pyridostigmine iodide]" assay_result=1.02
compound=O=c1[nH]c(=O)n([C@H]2C[C@H](O)[C@@H](CO)O2)cc1I assay_result=0.99
compound=Oc1c(Cl)cc(Cl)c(Cl)c1Cc1c(O)c(Cl)cc(Cl)c1Cl assay_result=0.829
compound=O=C(Oc1cccc2cccnc12)c1ccccc1 assay_result=0.876
compound=Nc1ccn([C@H]2CC[C@@H](CO)O2)c(=O)n1 assay_result=0.88
compound=COc1cc2c(cc1-c1c(C)noc1C)ncc1[nH]c(=O)n([C@H](C)c3ccccn3)c12 assay_result=0.96

# CN1C(=O)OC(C)(C)C1=O with E13: surviving fraction is 0.872

# COc1cc2c(NC3CCN(C(C)C)CC3)nc(C3CCCCC3)nc2cc1OCCCN1CCCC1 with E13: surviving fraction is 0.973

# NCCNc1ccc(NCCN)c2c1C(=O)c1ccncc1C2=O [Pixantrone dimaleate] with E13: surviving fraction is 0.883

# CC[C@@H]1C(=O)N(C)c2cnc(Nc3ccc(C(=O)N[C@H]4CC[C@H](N5CCN(CC6CC6)CC5)CC4)cc3OC)nc2N1C(C)C with E13: surviving fraction is 0.449

# Cc1ncc(CO)c(CO)c1O [Pyridoxine hydrochloride] with E13: surviving fraction is 0.907

# CCC1=C[C@@H]2CN(C1)Cc1c([nH]c3ccccc13)[C@@](C(=O)OC)(c1cc3c(cc1OC)N(C)[C@H]1[C@@](O)(C(=O)OC)[C@H](OC(C)=O)[C@]4(CC)C=CCN5CC[C@]31[C@@H]54)C2 [Vinorelbine Tartrate] with E13: surviving fraction is 0.863

---

Form field: surviving fraction (one value per entry).
System: E57 (patient-derived glioblastoma stem cells of mesenchymal subtype)
PROTOCOL DETAILS: surviving fraction (nuclei count normalised to DMSO); higher = more cells surviving (less toxic)
MEASUREMENT CONDITIONS: 1000 nM; exposure time: 72 h
Counter-ions that a name gives are not always drawn.
Answer with a number only.

Worked cases, answers included:
molecule=CN1C(=O)[C@@]23C[C@]4([C@]56C[C@@]78SS[C@@](CO)(C(=O)N7[C@H]5Nc5ccccc56)N(C)C8=O)c5ccccc5N[C@@H]4N2C(=O)[C@]1(CO)SS3 assay_result=0.00745
molecule=Nc1ncn([C@@H]2O[C@H](CO)[C@@H](O)[C@H]2O)c(=O)n1 assay_result=0.507
molecule="CC(C)NCC(O)c1ccc(O)c(O)c1 (centres undefined) [Isoproterenol hydrochloride]" assay_result=1.14

Proceed to the following item.
Query C[C@H](NC(=O)[C@@H](O)c1cc(F)cc(F)c1)C(=O)N[C@@H]1C(=O)N(C)c2ccccc2-c2ccccc21 yields surviving fraction of 0.943

---

Form field: phenotypic distance (one value per entry).
System: E28 (patient-derived glioblastoma stem cells of classical subtype);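 note: cell Painting imaging in 384-well plates, CellProfiler features reduced to at least 20 principal components, Euclidean distance versus same-plate DMSO vehicle wells (0.1% v/v), median over six images per well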
PROTOCOL DETAILS: phenotypic distance (Euclidean, principal components) from DMSO controls (arbitrary units); higher = stronger morphological change
MEASUREMENT CONDITIONS: 1000 nM; exposure time: 72 h
Counter-ions that a name gives are not always drawn.
Answer with a number only.

Worked cases, answers included:
compound="COc1cc([C@@H]2c3cc4c(cc3[C@@H](O[C@@H]3O[C@@H]5CO[C@@H](c6cccs6)O[C@H]5[C@H](O)[C@H]3O)[C@H]3COC(=O)[C@H]23)OCO4)cc(OC)c1O [Teniposide]" assay_system=E28 measured_parameter="phenotypic distance" assay_result=3.58
compound="O=C(/C=C\\n1cnc(-c2cc(C(F)(F)F)cc(C(F)(F)F)c2)n1)NNc1cnccn1 [Selinexor]" assay_system=E28 measured_parameter="phenotypic distance" assay_result=2.69
compound="CC[C@]1(O)C[C@@H]2CN(CCc3c([nH]c4ccccc34)[C@@](C(=O)OC)(c3cc4c(cc3OC)N(C)[C@H]3[C@@](O)(C(=O)OC)[C@H](OC(C)=O)[C@]5(CC)C=CCN6CC[C@]43[C@@H]65)C2)C1 [Vinblastine sulfate]" assay_system=E28 measured_parameter="phenotypic distance" assay_result=6.15
compound=COc1ccc2c(c1)CC[C@@H]1[C@@H]2CC[C@]2(C)[C@@H](NCCCCCCN3C(=O)CCC3=O)CC[C@@H]12 assay_system=E28 measured_parameter="phenotypic distance" assay_result=0.805
compound="Cc1ccc(/C=N/NC(=O)c2n[nH]c3c2CCCC3)cc1 [Suprafenacine]" assay_system=E28 measured_parameter="phenotypic distance" assay_result=4.1

Proceed to the following item.
Query CC(=O)CC(c1ccc([N+](=O)[O-])cc1)c1c(O)c2ccccc2oc1=O (stereo unspecified) [Acenocoumarol] yields phenotypic distance of 1.03

Data provenance is the supplement of paper PMC13207355.
